Molecular target: LXRβ (Homo sapiens)
Construct: Co-transfection expression plasmids, comprising full-length LXRα (pCMX-h LXRα[…] or LXRβ (pCMX-hLXRβ))
Experiment: Co-transfection assay (LXRE luciferase reporter), LXRβ
Details: CV-1 cells transfected with pCMX-hLXRβ and LXREx1-Tk-Luciferase; 20 hours incubation
// thresholds for EC50 classes: lower level: < 100 nM; middle level: ≥ 100 nM and < 1000 nM; upper level: ≥ 1000 nM

1. Cc1nc(C(F)(F)F)cn1-c1ccc(-c2cccc(S(=O)(=O)N(C)C)c2)cc1-c1ocnc1-c1ccc(OC(F)(F)F)cc1
middle level
2. Cc1nc(C(F)(F)F)cn1-c1ccc(-c2cc(F)c(CO)c(S(C)(=O)=O)c2)cc1-n1nncc1-c1ccc(OC(F)(F)F)c(F)c1
middle level
3. Cc1nc(-c2cc(-c3cccc(S(C)(=O)=O)c3)ccc2-n2cc(C(F)(F)F)nc2C)c(-c2cccnc2OC(F)F)o1
upper level
4. Cc1nc(C(F)(F)F)cn1-c1ccc(-c2ccc(CCO)c(S(C)(=O)=O)c2)cc1-n1nncc1-c1ccc(OC(F)(F)F)cc1
middle level
5. Cc1nc(C(F)(F)F)cn1-c1ccc(-c2cc(F)c(CO)c(S(C)(=O)=O)c2)cc1-n1nncc1C(C)(C)c1ccc(Cl)cc1
upper level
6. Cc1nc(-c2cc(-c3cc(F)c(CO)c(S(C)(=O)=O)c3)ccc2-n2cc(C(F)(F)F)nc2C)c(-c2ccc(OC(F)(F)F)cc2)o1
lower level
7. Cc1nc(C(F)(F)F)cn1-c1ccc(-c2ccc(CO)c(S(C)(=O)=O)c2)cc1-c1ccnn1-c1ccc(Cl)nc1
middle level
8. COc1ccc(-c2cnnn2-c2cc(-c3cccc(S(C)(=O)=O)c3)ccc2-n2cc(C(F)F)nc2C)cc1
upper level
9. Cc1nc(C(F)(F)F)cn1-c1ccc(-c2cccc(S(C)(=O)=O)c2)cc1-n1nncc1-c1ccc2occc2c1
middle level
10. Cc1ccc(-c2cnnn2-c2cc(-c3cc(F)c(CO)c(S(C)(=O)=O)c3)ccc2-n2cc(C(F)(F)F)nc2C)cc1
middle level
11. Cc1nc(C(F)(F)F)cn1-c1ccc(-c2cccc(S(C)(=O)=O)c2)cc1-n1nncc1-c1ccc(C#N)cc1
upper level
12. Cc1nc(C(F)(F)F)cn1-c1ccc(-c2cc(F)c(CO)c(S(C)(=O)=O)c2)cc1-c1nc(C(C)C)oc1-c1ccc(OC(F)(F)F)cc1
lower level

----------
Quick reference for pEC50 among some molecules
Biological target: LXRβ (Homo sapiens)
Construct: Co-transfection expression plasmids, comprising full-length LXRα (pCMX-h LXRα[…] or LXRβ (pCMX-hLXRβ))
Assay: Co-transfection assay (LXRE luciferase reporter), LXRβ
Settings: CV-1 cells transfected with pCMX-hLXRβ and LXREx1-Tk-Luciferase; 20 hours incubation
pEC50: −log10 of the molar value.
metric: pEC50

1. Cc1nc(-c2cc(-c3cccc(S(C)(=O)=O)c3)ccc2-n2cc(C(F)(F)F)nc2C)c(-c2ccc(Cl)cc2)o1
6.99
2. CS(=O)(=O)c1cccc(-c2ccc(-n3cnc(C(F)F)c3)c(-n3nncc3-c3ccc(OC(F)(F)F)cc3)c2)c1
5.48
3. Cc1nc(-c2cc(-c3cccc(S(C)(=O)=O)c3)ccc2-n2cc(C(F)(F)F)nc2C)c(-c2ccc(OC(F)(F)F)cc2)o1
7.11
4. COc1ccc(-c2cnnn2-c2cc(-c3cccc(S(C)(=O)=O)c3)ccc2-n2cc(C(F)(F)F)nc2C)cc1
6.27
5. Cc1nc(C(F)(F)F)cn1-c1ccc(-c2cccc(S(C)(=O)=O)c2)cc1-n1nncc1C(O)(c1ccc(Cl)cc1)C(F)(F)F (stereo not drawn)
6.48
6. Cc1nc(-c2cc(-c3cc(F)c(CO)c(S(C)(=O)=O)c3)ccc2-n2cc(C(F)(F)F)nc2C)c(-c2ccc(F)c(Cl)c2)o1
7.24
7. Cc1nc(C(F)(F)F)cn1-c1ccc(-c2cccc(S(=O)(=O)C(C)C)c2)cc1-n1nncc1-c1ccc(OC(F)(F)F)cc1
5.99
8. Cc1nc(C(F)(F)F)cn1-c1ccc(-c2cccc(S(C)(=O)=O)c2)cc1-c1oc(CCO)nc1-c1ccc(OC(F)(F)F)cc1
6.26
9. Cc1nc(-c2cc(-c3cc(F)c(CO)c(S(C)(=O)=O)c3)ccc2-n2cc(C(F)(F)F)nc2C)c(-c2ccc(OC3CCCC3)nc2)o1
6.59
10. Cc1nc(-c2ccc3c(c2)OC(F)(F)O3)c(-c2cc(-c3ccc(CO)c(S(C)(=O)=O)c3)ccc2-n2cc(C(F)(F)F)nc2C)o1
7.35
11. Cc1nc(C(F)(F)F)cn1-c1ccc(-c2cccc(S(C)(=O)=O)c2)cc1-n1nncc1-c1ccc(Cl)c(OC(F)(F)F)c1
6.18
12. Cc1nc(-c2cc(-c3cc(F)c(CO)c(S(C)(=O)=O)c3)ccc2-n2cc(C(F)(F)F)nc2C)c(-c2cccnc2Cl)o1
6.32
13. Cc1nc(-c2cc(-c3cc(F)c(CO)c(S(C)(=O)=O)c3)ccc2-n2cc(C(F)(F)F)nc2C)c(-c2cncc(Cl)c2)o1
6.66
14. Cc1nc(-c2cc(-c3cccc(S(C)(=O)=O)c3)ccc2-n2cc(C(F)(F)F)nc2C)c(-c2cccc(OC(F)(F)C(F)(F)F)c2)o1
6.63
15. Cc1nc(-c2cc(-c3cccc(S(C)(=O)=O)c3)ccc2-n2cc(C(F)(F)F)nc2C)c(-c2ccc(OC(F)F)c(F)c2)o1
7.19
16. Cc1nc(C(F)(F)F)cn1-c1ccc(-c2cc(Cl)c(CO)c(S(C)(=O)=O)c2)cc1-n1nncc1-c1ccc2c(c1)OC(F)(F)O2
6.30
17. Cc1nc(C(F)(F)F)cn1-c1ccc(-c2cc(F)c(CO)c(S(C)(=O)=O)c2)cc1-c1ocnc1-c1ccc(OC(F)(F)F)cc1
6.86
18. Cc1nc(-c2cc(-c3cc(F)c(CO)c(S(C)(=O)=O)c3)ccc2-n2cc(C(F)(F)F)nc2C)c(-c2ccc(F)c(OC(F)F)c2)o1
6.90

----------
Target: LXRβ (Homo sapiens, UniProt P55055)
Construct: Co-transfection expression plasmids, comprising full-length LXRα (pCMX-h LXRα[…] or LXRβ (pCMX-hLXRβ)); expressed in transfected cells; host or cells: CV-1 African Green Monkey Kidney Cells
Sequence (P55055 whole entry): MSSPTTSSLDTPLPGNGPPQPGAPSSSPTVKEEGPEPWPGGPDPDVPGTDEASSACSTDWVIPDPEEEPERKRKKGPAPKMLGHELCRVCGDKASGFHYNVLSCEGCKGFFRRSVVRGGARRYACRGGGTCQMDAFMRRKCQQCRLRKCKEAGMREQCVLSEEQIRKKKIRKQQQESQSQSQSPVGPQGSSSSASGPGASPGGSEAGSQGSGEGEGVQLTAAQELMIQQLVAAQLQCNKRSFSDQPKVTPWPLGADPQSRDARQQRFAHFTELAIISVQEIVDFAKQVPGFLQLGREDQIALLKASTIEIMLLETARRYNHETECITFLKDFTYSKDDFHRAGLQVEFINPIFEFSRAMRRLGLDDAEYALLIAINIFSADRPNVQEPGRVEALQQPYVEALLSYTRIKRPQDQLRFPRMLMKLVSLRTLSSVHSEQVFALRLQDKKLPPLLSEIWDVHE
Sequence (P19793 whole entry partner): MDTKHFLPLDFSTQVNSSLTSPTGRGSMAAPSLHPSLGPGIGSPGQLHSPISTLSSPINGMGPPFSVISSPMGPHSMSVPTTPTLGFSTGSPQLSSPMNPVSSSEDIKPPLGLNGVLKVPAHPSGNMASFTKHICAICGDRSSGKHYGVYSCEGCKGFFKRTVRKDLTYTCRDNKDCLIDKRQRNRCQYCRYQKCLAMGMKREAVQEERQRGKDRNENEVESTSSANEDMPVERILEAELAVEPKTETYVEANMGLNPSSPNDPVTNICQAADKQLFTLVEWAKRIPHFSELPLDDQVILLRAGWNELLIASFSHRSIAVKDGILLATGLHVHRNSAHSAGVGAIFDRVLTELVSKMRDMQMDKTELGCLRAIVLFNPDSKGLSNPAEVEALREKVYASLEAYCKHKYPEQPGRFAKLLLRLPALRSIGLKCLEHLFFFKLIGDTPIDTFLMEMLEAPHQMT
Assay: Co-transfection assay (LXRE luciferase reporter), LXRβ
Assay type: cell-based
Details: LXRβ co-transfection; relative to high control 1-(2,4-difluorobenzyl)-2-oxo-6-(4-phenoxyphenyl)-4-(trifluoromethyl)-1,2-dihydropyridine-3-carbonitrile; read-out: % Efficacy
Quick reference for Emax among some compounds
metric: Emax

1) COc1ccc(-c2ccc(-n3cc(C(F)(F)F)nc3C)c(-n3nncc3-c3ccc(OC(F)(F)F)cc3)c2)cc1S(C)(=O)=O
71%
2) Cc1nc(-c2cc(-c3cccc(S(C)(=O)=O)c3)ccc2-n2cc(C(F)(F)F)nc2C)c(-c2ccc(Cl)c(Cl)c2)o1
68%
3) Cc1nc(C(F)(F)F)cn1-c1ccc(-c2cccc(S(C)(=O)=O)c2)cc1-n1nncc1C(C)c1ccc(Cl)cc1 (centres unmarked)
62%
4) Cc1nc(C(F)(F)F)cn1-c1ccc(-c2cccc(S(C)(=O)=O)c2)cc1-c1ccnn1-c1ccc(Cl)cc1
84%
5) Cc1nc(C(F)(F)F)cn1-c1ccc(-c2cccc(S(C)(=O)=O)c2)cc1-n1nncc1Cc1ccccc1OC(F)(F)F
36%

----------
Quick reference for EC50 among some compounds
Target: LXRβ (Homo sapiens)
Construct: Co-transfection expression plasmids, comprising full-length LXRα (pCMX-h LXRα[…] or LXRβ (pCMX-hLXRβ))
Experiment: Co-transfection assay (LXRE luciferase reporter), LXRβ
Conditions: CV-1 cells transfected with pCMX-hLXRβ and LXREx1-Tk-Luciferase; 20 hours incubation
metric: EC50 (nM)

1) Cc1nc(-c2cc(-c3cccc(S(C)(=O)=O)c3)ccc2-n2cc(C(F)(F)F)nc2C)c(-c2cccn(C(C)C)c2=O)o1 [Example 379]
825
2) Cc1nc(-c2cc(-c3cccc(S(=O)(=O)C4CC4)c3)ccc2-n2cc(C(F)(F)F)nc2C)c(-c2ccc(OC(F)F)c(F)c2)o1 [Example 429]
74
3) Cc1nc(-c2cc(-c3cccc([S+](C)[O-])c3)ccc2-n2cc(C(F)(F)F)nc2C)c(-c2ccc(OC(F)(F)F)cc2)o1 (centres unmarked) [Example 533]
233
4) Cc1nc(C(F)(F)F)cn1-c1ccc(-c2cccc(S(C)(=O)=O)c2)cc1-c1nc(C(F)(F)F)cn1-c1ccc(Cl)cc1 [Example 644]
408
5) Cc1cc(-c2cnnn2-c2cc(-c3cccc(S(C)(=O)=O)c3)ccc2-n2cc(C(F)(F)F)nc2C)ccc1F [Example 28]
589
6) Cc1nc(C(F)F)cn1-c1ccc(-c2cc(Cl)c(CO)c(S(C)(=O)=O)c2)cc1-n1nncc1-c1ccc(OC(F)(F)F)cc1 [Example 158]
1410
7) Cc1nc(C(F)(F)F)cn1-c1ccc(-c2ccc(CO)c(S(C)(=O)=O)c2)cc1-c1nc(CC(C)C)oc1-c1ccc(OC(F)(F)F)cc1 [Example 563]
13
8) COCc1ccc(-c2ccc(-n3cc(C(F)(F)F)nc3C)c(-n3nncc3-c3ccc(OC(F)(F)F)cc3)c2)cc1S(C)(=O)=O [Example 89]
316
9) Cc1nc(-c2cc(-c3cc(F)c(CO)c(S(C)(=O)=O)c3)ccc2-n2cc(C(C)O)nc2C)c(-c2ccc3c(c2)OC(F)(F)O3)o1 (single isomer, unassigned) [Example 516]
270
10) Cc1nc(C(F)(F)F)cn1-c1ccc(-c2cccc(S(C)(=O)=O)c2)cc1-n1nncc1-c1ccc(F)cc1F [Example 40]
954
11) Cc1nc(C(C)(F)F)cn1-c1ccc(-c2cccc(S(C)(=O)=O)c2)cc1-n1nncc1-c1ccc(Cl)cc1 [Example 176]
792
12) Cc1nc(-c2ccc(Cl)cc2Cl)c(-c2cc(-c3cc(F)c(CO)c(S(C)(=O)=O)c3)ccc2-n2cc(C(F)(F)F)nc2C)o1 [Example 609]
36
13) Cc1nc(C(F)(F)F)cn1-c1c(F)cc(-c2cc(Cl)c(CO)c(S(C)(=O)=O)c2)cc1-n1nncc1-c1ccc(OC(F)(F)F)cc1 [Example 197]
252
14) Cc1nc(C(F)(F)F)cn1-c1ccc(-c2cc(F)c(CO)c(S(C)(=O)=O)c2)cc1-c1nc(C2CC2)cn1-c1ccc(Cl)cc1 [Example 647]
350
15) Cc1nc(-c2ccc(OC(F)F)cc2)c(-c2cc(-c3cc(F)c(CO)c(S(C)(=O)=O)c3)ccc2-n2cc(C(F)(F)F)nc2C)o1 [Example 624]
42
16) COc1ccc(-c2cnnn2-c2cc(-c3cccc(S(C)(=O)=O)c3)ccc2-n2cc(C(F)(F)F)nc2C)c(OC)c1 [Example 93]
2150
17) Cc1nc(C(N)=O)cn1-c1ccc(-c2cccc(S(C)(=O)=O)c2)cc1-c1nc(C2CC2)oc1-c1ccc2c(c1)OC(F)(F)O2 [Example 489]
1080
18) CCC(F)(F)c1cn(-c2ccc(-c3cc(F)c(CO)c(S(C)(=O)=O)c3)cc2-c2ocnc2-c2ccc(OC(F)(F)F)cc2)c(C)n1 [Example 363]
288
19) Cc1nc(C(F)(F)F)cn1-c1ccc(-c2cccc(S(C)(=O)=O)c2)cc1-c1ccnn1-c1ccc(OC(F)(F)F)cc1 [Example 289]
122
20) Cc1nc(C(F)(F)F)cn1-c1ccc(-c2cccc(S(C)(=O)=O)c2)cc1-n1nncc1Cc1cccc(Cl)c1 [Example 121]
651
